Percent Inhibition (J6.77 adhesion to CS-1 peptide of fibronectin, 5 ug/ml): recorded values
molecular target: α4β1 integrin (on J6.77 cells) (UniProt P13612 34-1032; P05556 21-798, limits assumed); experiment: cell-based or functional assay
Value expressed in %; do not type the unit.

sc 277 (antibody, V domains shown) VH: EVQLVQSGAEVKKPGESLKISCKGSGYSFPSYWIGWVRQMPGKGLEWMGIIYPGDSDTRYSPSFQGQVTISADKSISTAYLQWSSLKASDTAMYYCARHPMEDGMDVWGQGTTVTVSS VL: SYELTQPPSVSVSPGQTARITCSGDALPKKYAFWYQQKSGQAPVLVIYDDNKRPSGIPERFSGSSSGTMATLTITGAQVEDEADYYCYSTDSSGHHVFGGGTKLTVL: -17
sc 133 (antibody, V domains shown) VH: QVQLVQSGAEVKKPGASVKVSCKASGYTFTGYYMHWVRQAPGQGLEWMGWINPKSGDTNYAQKFQGRVTLTRDTSTSTAYMELSRLRSDDTAVYYCARRLDVWGQGTTVTVSS VL: QSVLTQPPSVSAAPGQKVTISCSGSSSNIGNNYVSWYQQLPGTAPKLLIYDNNKRPSGIPDRFSGSKSGTSATLGITGLQTGDEADYYCGTWNSSLSAGYVFGTGTKVTV: -15

Turning now to a further binder:
Requested read-out: Percent Inhibition (J6.77 adhesion to CS-1 peptide of fibronectin, 5 ug/ml). Entry: sc 298 (antibody, V domains shown) VH: QVQLVESGGGVVQPGRSLRLSCAASGFTFSSYGMHWVRQAPGKGLEWVAVIWYGGSNKYYADSVKGRFTISRDNSKNTLYLQMNSLRAEDTAVYYCARDLAARRGDYYYYGMDVWGQGTTVTVSS VL: SSELTQDPVVSVALGQTVRITCQGDSLRSYYLSWYQQKPGQAPVLVIYGKNNRPSGIPDRFSGSNSGNTASLTITGAQAEDEADYYCNSRDSSGNHLFGGGTKLTVL
-7
